TARGET UNDER TEST: Sigma-1 receptor (Cavia porcellus, UniProt Q60492)
Construct: guinea pig brains were homogenized; from tissue; host or cells: guinea pig brain membranes
Sequence (Q60492 whole entry): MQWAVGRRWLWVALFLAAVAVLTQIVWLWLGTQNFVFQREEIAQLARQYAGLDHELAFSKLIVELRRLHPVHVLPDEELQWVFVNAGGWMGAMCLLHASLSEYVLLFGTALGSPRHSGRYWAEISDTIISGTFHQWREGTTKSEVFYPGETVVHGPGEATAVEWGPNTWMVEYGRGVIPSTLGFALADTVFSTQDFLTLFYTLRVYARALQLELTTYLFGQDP
EXPERIMENTAL DETAILS: Sigma-1 receptor binding assay, [3H](+)-pentazocine displacement in brain membranes
CONDITIONS: 2.5 h, compound at 10^−7 M; [3H](+)-pentazocine 0.5 nM; guinea pig brain membranes; non-specific binding defined by 1 μM haloperidol; read-out: Percent Replacement Sigma-1 receptor [10^−7 M]
Where a name gives a salt, the structure may show the parent alone.
Threshold rule: inhibition at 0.1 µM greater than or equal to 80% is met; below that, not met.

[[record]]
compound = "COc1ccc(CN[C@@H]2CN(Cc3ccccc3)C[C@H]2O)cc1 [Example 32]"
group_label = "not met"

[[record]]
compound = "O=S(=O)(c1ccccc1F)N1CCN([C@@H]2CN(Cc3ccccc3)C[C@H]2O)CC1 [Example 76, dihydrochloride]"
group_label = "met"

[[record]]
compound = "CC(=O)O[C@@H]1CN(Cc2ccccc2)C[C@H]1N1CCN(S(=O)(=O)c2ccccc2Cl)CC1 [Example 52]"
group_label = "met"

[[record]]
compound = "O[C@@H]1CN(Cc2ccccc2)C[C@H]1N1CCN(c2ccc(Cl)c(Cl)c2)CC1 [Example 88]"
group_label = "met"

[[record]]
compound = "O[C@@H]1CN(Cc2ccccc2)C[C@H]1N1CCN(c2ccccc2)CC1 [Example 18]"
group_label = "met"

